Hello, the source for this data is ChEMBL document CHEMBL4340516, in case you need it.

// values below are reported pIC50
- Tested on: HL-60
- procedure_details: Antiproliferative activity against human HL60 cells assessed as reduction in cell viability incubated for 48 hrs by MTS assay
- Type: functional, cell-based
- test_settings: HL-60, 48 h
pIC50: −log10 of the molar value.
outcome_measure: pIC50

C[C@@H]1CC[C@@]2(OC1)O[C@H]1C[C@H]3[C@@H]4CC=C5C[C@H](n6c[n+](CC(=O)c7ccccc7)c7ccccc76)CC[C@]5(C)[C@H]4CC[C@]3(C)[C@H]1[C@@H]2C :: 5.92
COc1ccc(C(=O)C[n+]2ccn([C@@H]3CC[C@@]4(C)C(=CC[C@H]5[C@@H]6C[C@@H]7O[C@]8(CC[C@@H](C)CO8)[C@@H](C)[C@@H]7[C@@]6(C)CC[C@@H]54)C3)c2)cc1 :: 5.90

----------
// values below are reported IC50
- Test system: HL-60
- procedure_details: Antiproliferative activity against human HL60 cells assessed as reduction in cell viability incubated for 48 hrs by MTS assay
- Format: functional, cell-based
- test_settings: HL-60, 48 h
outcome_measure: IC50 (nM)

C[C@@H]1CC[C@@]2(OC1)O[C@H]1C[C@H]3[C@@H]4CC=C5C[C@@H](n6cc[n+](CC(=O)c7ccc8ccccc8c7)c6)CC[C@]5(C)[C@H]4CC[C@]3(C)[C@H]1[C@@H]2C :: 1370
Cc1cc2c(cc1C)[n+](CC(=O)c1cccc(Br)c1)cn2[C@@H]1CC[C@@]2(C)C(=CC[C@H]3[C@@H]4C[C@@H]5O[C@]6(CC[C@@H](C)CO6)[C@@H](C)[C@@H]5[C@@]4(C)CC[C@@H]32)C1 :: 980
C[C@@H]1CC[C@@]2(OC1)O[C@H]1C[C@H]3[C@@H]4C[C@H](n5cc[n+](Cc6ccc7ccccc7c6)c5)[C@]56C[C@H]5CC[C@]6(C)[C@H]4CC[C@]3(C)[C@H]1[C@@H]2C :: 1220
C[C@]12CC[C@H]3[C@@H](CC=C4C[C@@H](O)CC[C@@]43C)[C@@H]1CC[C@@H]2n1cc[n+](Cc2ccc3ccccc3c2)c1 :: 2680
COc1ccc(C(=O)C[n+]2cn([C@@H]3CC[C@@]4(C)C(=CC[C@H]5[C@@H]6C[C@@H]7O[C@]8(CC[C@@H](C)CO8)[C@@H](C)[C@@H]7[C@@]6(C)CC[C@@H]54)C3)c3ccccc32)cc1 :: 1220

----------
- System: HL-60
- procedure_details: Antiproliferative activity against human HL60 cells assessed as reduction in cell viability incubated for 48 hrs by MTS assay
- Assay type: functional, cell-based
- test_settings: HL-60, 48 h
pIC50: −log10 of the molar value.
// values below are reported pIC50
outcome_measure: pIC50

COc1ccc(C(=O)C[n+]2ccn([C@H]3C[C@H]4[C@@H]5C[C@@H]6O[C@]7(CC[C@@H](C)CO7)[C@@H](C)[C@@H]6[C@@]5(C)CC[C@@H]4[C@@]4(C)CC[C@@H]5C[C@]534)c2)cc1 :: 5.90
Cc1cc2c(cc1C)[n+](Cc1ccccc1Br)cn2[C@@H]1CC[C@@]2(C)C(=CC[C@H]3[C@@H]4C[C@@H]5O[C@]6(CC[C@@H](C)CO6)[C@@H](C)[C@@H]5[C@@]4(C)CC[C@@H]32)C1.[Br-] :: 6.31
CC(=O)O[C@H]1CC[C@@]2(C)C(=CC[C@H]3[C@@H]4CC[C@H](n5cc[n+](CC(=O)c6ccccc6)c5)[C@@]4(C)CC[C@@H]32)C1 :: 5.19
